Values from patent US20190184028A1

Target: T1, human EpCAM (human, UniProt P16422 24-314)
T1 sequence (looked up): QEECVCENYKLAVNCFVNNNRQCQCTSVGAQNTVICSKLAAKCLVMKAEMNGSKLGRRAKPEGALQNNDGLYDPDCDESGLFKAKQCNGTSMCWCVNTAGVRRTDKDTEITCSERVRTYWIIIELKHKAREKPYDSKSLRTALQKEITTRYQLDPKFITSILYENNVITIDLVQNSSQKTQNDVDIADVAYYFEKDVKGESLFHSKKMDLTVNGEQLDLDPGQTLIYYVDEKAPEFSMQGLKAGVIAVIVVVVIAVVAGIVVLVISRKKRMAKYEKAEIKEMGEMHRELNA
Test: cell-based or functional assay
METRIC: IC50 (nM), cytotoxicity on COLO205 cells (CellTiterGlo)
I only need the number, in nM, no unit after it.

Reference set (3 entries):
BINDER	EXPERIMENTAL_VALUE
ISOP130R5CP6_A06_Y85A vcMMAF conjugate (designed binder, vcMMAF conjugated via the sortase reaction at the C-terminal sortase tag) MLPAPKNLVVSRVTEDSARLSWKHYRPGARFDSFLIQYQESEKVGEAIVLTVPGSERSYDLTGLKPGTEYTVSIYGVVTALPSYASSNPLSAIFTTGGHHHHHHGGLPETGGH	564
ISOP130R5CP6_A06_G28A vcMMAF conjugate (designed binder, vcMMAF conjugated via the sortase reaction at the C-terminal sortase tag) MLPAPKNLVVSRVTEDSARLSWKHYRPAARFDSFLIQYQESEKVGEAIVLTVPGSERSYDLTGLKPGTEYTVSIYGVVTALPSYYSSNPLSAIFTTGGHHHHHHGGLPETGGH	0.8
ISOP130R5CP6_A06_S86A vcMMAF conjugate (designed binder, vcMMAF conjugated via the sortase reaction at the C-terminal sortase tag) MLPAPKNLVVSRVTEDSARLSWKHYRPGARFDSFLIQYQESEKVGEAIVLTVPGSERSYDLTGLKPGTEYTVSIYGVVTALPSYYASNPLSAIFTTGGHHHHHHGGLPETGGH	1.3

Let's switch to this binder now.
Query: // returns reported IC50 (nM), cytotoxicity on COLO205 cells (CellTiterGlo) for input ISOP130R5CP6_A06_P82A vcMMAF conjugate (designed binder, vcMMAF conjugated via the sortase reaction at the C-terminal sortase tag) MLPAPKNLVVSRVTEDSARLSWKHYRPGARFDSFLIQYQESEKVGEAIVLTVPGSERSYDLTGLKPGTEYTVSIYGVVTALASYYSSNPLSAIFTTGGHHHHHHGGLPETGGH
Response: 326
